Molecular target: UniProt:P52699
Sequence (P52699 19-246, looked up, species assumed): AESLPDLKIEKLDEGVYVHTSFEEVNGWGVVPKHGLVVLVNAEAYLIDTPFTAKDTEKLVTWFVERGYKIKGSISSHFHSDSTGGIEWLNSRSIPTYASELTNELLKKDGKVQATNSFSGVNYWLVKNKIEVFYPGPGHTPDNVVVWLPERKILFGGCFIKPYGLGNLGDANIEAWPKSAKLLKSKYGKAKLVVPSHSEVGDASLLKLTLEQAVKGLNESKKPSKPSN
Property: IC50

> print(dat)
                              line.notation       val
1  O=C(O)CSCC1=C(C(=O)O)N2C(=O)[C@@H](NC(=O)Cc3ccccc3)[C@H]2SC1  > 100 µM

Kindly consider the entry below.
Tested on UniProt:P52699: CC1=C(C(=O)O)N2C(=O)[C@@H](NC(=O)Cc3ccccc3)[C@H]2SC1 . Observed IC50: > 100 µM

###

meropenem MIC overview
System: E. coli (NDM-1)
Assay: Synergy assay: MIC of meropenem in combination with test compound
Format: cell-based
Conditions: test compound 0 μg/mL (meropenem alone, baseline)
Field: numeric (µg/mL). Do not append units.

Past entries and their recorded results:
> print(dat)
                              line.notation       property  val
1  CC1=C(C(=O)O)N2C(=O)[C@@H](NC(=O)Cc3ccccc3)[C@H]2SC1  meropenem MIC   32
2  O=C(Cc1ccccc1)N[C@@H]1C(=O)N2C(C(=O)O)=C(CSCCc3ccccc3)CS[C@H]12  meropenem MIC   64
3  O=C(O)CSCC1=C(C(=O)O)N2C(=O)[C@@H](NC(=O)Cc3ccccc3)[C@H]2SC1  meropenem MIC   32
4  O=C(Cc1ccccc1)N[C@@H]1C(=O)N2C(C(=O)O)=C(CSCc3ccccc3)CS[C@H]12  meropenem MIC   32

Kindly consider the entry below.
meropenem MIC for O=C(Cc1ccccc1)N[C@@H]1C(=O)N2C(C(=O)O)=C(CSCC(=O)c3ccccc3)CS[C@H]12 is 32

###

Target: NDM-1 (Klebsiella pneumoniae)
Sequence (C7C422 29-270, looked up, species assumed): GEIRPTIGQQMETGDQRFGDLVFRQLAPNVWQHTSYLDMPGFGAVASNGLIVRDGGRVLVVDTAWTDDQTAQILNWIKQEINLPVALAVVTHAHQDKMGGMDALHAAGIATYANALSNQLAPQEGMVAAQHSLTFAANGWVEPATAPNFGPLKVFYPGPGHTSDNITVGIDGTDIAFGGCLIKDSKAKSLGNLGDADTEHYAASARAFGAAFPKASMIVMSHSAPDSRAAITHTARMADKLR
Assay: Enzyme inhibition assay with nitrocefin as chromogenic substrate
Type: biochemical
Property: IC50

Past entries and their recorded results:
> print(dat)
                              line.notation  property       val
1  O=C(Cc1ccccc1)N[C@@H]1C(=O)N2C(C(=O)O)=C(CSCc3ccccc3)CS[C@H]12      IC50  > 100 µM
2  O=C(Cc1ccccc1)N[C@@H]1C(=O)N2C(C(=O)O)=C(CSCCc3ccccc3)CS[C@H]12      IC50  > 100 µM

IC50 for CC1=C(C(=O)O)N2C(=O)[C@@H](NC(=O)Cc3ccccc3)[C@H]2SC1 is > 100 µM
